These measurements were taken from patent US12692253B2.

Biological target: Rabbit Reticulocyte Lysate (eukaryotic protein synthesis)
Experiment: Rabbit reticulocyte lysate luciferase assay (inhibition of eukaryotic protein synthesis)
Type: biochemical
Details: class by IC50 or % inhibition @ 1 μM, read-out: Rabbit reticulocyte IC50 (μM/% inhib.)
measurement name: IC50

1) CC(Cc1ccc(-n2ccc(NC(=O)N3CCN(C(=O)C(C)(C)N)CC3)nc2=O)cc1)N1C[C@@H]2[C@@H](CN)[C@@H]2[C@H]1CO (stereo partly shown)	≥ 1 µM
2) CC(C)(N)C(=O)N1CCN(C(=O)Nc2ccn(-c3ccc(C(C)(C)CN4C[C@@H]5[C@@H](CN)[C@@H]5C4)cc3)c(=O)n2)CC1	≥ 1 µM
3) CC(C)(N)C(=O)N1CCN(C(=O)Nc2ccn(-c3ccc(CCN4CCC5(CCC5N)CC4)cc3)c(=O)n2)CC1 (stereo not shown)	≥ 1 µM

Query string: Find IC50 (Rabbit Reticulocyte Lysate (eukaryotic protein synthesis)) for the entry CC(C)(N)C(=O)N1CCN(C(=O)Nc2ccn(-c3ccc(CN4CCC5(CCNC5)C4)cc3)c(=O)n2)CC1 (stereo not shown)
Result string: ≥ 1 µM

Query string: Find IC50 (Rabbit Reticulocyte Lysate (eukaryotic protein synthesis)) for the entry C[C@](N)(CO)C(=O)N1CCN(C(=O)Nc2ccn(-c3ccc(CN4CCC5(CC4)CC(N)C5)cc3)c(=O)n2)CC1
Result string: ≥ 1 µM

Query string: Find IC50 (Rabbit Reticulocyte Lysate (eukaryotic protein synthesis)) for the entry C[C@H]1CN(C(=O)C(C)(C)N)CCN1C(=O)Nc1ccn(-c2ccc(CN3C[C@@H]4[C@@H](N)[C@@H]4C3)cc2)c(=O)n1
Result string: ≥ 1 µM

Query string: Find IC50 (Rabbit Reticulocyte Lysate (eukaryotic protein synthesis)) for the entry C[C@](N)(CO)C(=O)N1CCN(C(=O)Nc2ccn(-c3ccc(CN4C[C@@H]5[C@@H](N)[C@@H]5C4)c(C(F)(F)F)c3)c(=O)n2)CC1
Result string: ≥ 1 µM

Query string: Find IC50 (Rabbit Reticulocyte Lysate (eukaryotic protein synthesis)) for the entry CC(N)[C@H]1[C@@H]2CN(Cc3ccc(-n4ccc(NC(=O)N5CCN(C(=O)C(C)(C)N)CC5)nc4=O)cc3)C[C@@H]21 (stereo partly shown)
Result string: ≥ 1 µM

Query string: Find IC50 (Rabbit Reticulocyte Lysate (eukaryotic protein synthesis)) for the entry CC(C)(N)C(=O)N1CCN(C(=O)Nc2ccn(-c3ccc(CN4C[C@@H]5[C@@H](N)[C@@H]5C4)c(Cl)c3)c(=O)n2)CC1
Result string: ≥ 1 µM

Query string: Find IC50 (Rabbit Reticulocyte Lysate (eukaryotic protein synthesis)) for the entry NC1CC2(CCN(C(=O)Nc3ccn(-c4ccc(CN5C[C@@H]6[C@@H](N)[C@@H]6C5)cc4)c(=O)n3)CC2)C1
Result string: ≥ 1 µM

Query string: Find IC50 (Rabbit Reticulocyte Lysate (eukaryotic protein synthesis)) for the entry CCC(Cc1ccc(-n2ccc(NC(=O)N3CCN(C(=O)C(C)(C)N)CC3)nc2=O)cc1)N1C[C@@H]2[C@@H](CN)[C@@H]2C1 (stereo partly shown)
Result string: ≥ 1 µM

Query string: Find IC50 (Rabbit Reticulocyte Lysate (eukaryotic protein synthesis)) for the entry CC(C)(N)C(=O)N1CCN(C(=O)Nc2ccn(-c3ccc(CCN4C[C@@H]5[C@@H](CN)[C@@H]5C4)cc3)c(=O)n2)CC1
Result string: ≥ 1 µM

Query string: Find IC50 (Rabbit Reticulocyte Lysate (eukaryotic protein synthesis)) for the entry CC(C)(N)C(=O)N1CCN(C(=O)Nc2ccn(-c3ccc(CN4C[C@@H]5[C@H](C4)[C@H]5C(N)=O)cc3)c(=O)n2)CC1
Result string: ≥ 1 µM
